# Test system: SKBR3 (human breast tumor)
# test.details: In vitro cytotoxicity, clonogenic assay (plating efficiency)
# Assay type: cell-based
# experimental.conditions: Homo sapiens, SK-BR-3, 24 h, SKBR3, 24 hour exposure
pIC50: −log10 of the molar value.
test.readout: pIC50

Consider the molecule COc1cc2cc(c1Cl)N(C)C(=O)C[C@H](OC(=O)[C@H](C)N(C)C(=O)CCSSC)[C@]1(C)O[C@H]1[C@H](C)[C@@H]1C[C@@](O)(NC(=O)O1)[C@H](OC)/C=C/C=C(\C)C2 tested on SKBR3 (human breast tumor); state its pIC50. ≥ 11.00

Continuing:
Output reported pIC50 of the molecule COc1cc2cc(c1Cl)N(C)C(=O)C[C@H](OC(=O)[C@H](C)N(C)C(=O)CCS)[C@]1(C)O[C@H]1[C@H](C)[C@@H]1C[C@@](O)(NC(=O)O1)[C@H](OC)/C=C/C=C(\C)C2 on SKBR3 (human breast tumor). > 11.00
